- Target desc: muscarinic receptors
- Type: binding, Hooded Lister rats
- Run parameters: displacement of muscarinic antagonist 3H-QNB (0.27nM), rat cerebral cortex, 37° C., 30 min
Counter-ions that a name gives are not always drawn.
Quantity: log10(IC50) (log10 of the value in µM)
log10 IC50, µM

A selection of reference data follows.
{"columns": ["Molecule", "log10(IC50)"],
 "data": [
  ["Nc1noc(C[C@H]2CN3CC[C@@H]2C3)n1 (relative stereo)", 1.32],
  ["Nc1noc(CC23CCN(CC2)C3)n1", 1.93],
  ["Nc1noc(CC23CCCN(CC2)C3)n1 (racemic)", 0.83],
  ["c1coc(CC23CCN(CC2)C3)n1 [Example E14, oxalate salt]", 1.87],
  ["Cc1noc(CC2CN3CCC2CC3)n1 (racemic) [Example E2, hydrochloride salt]", 1.11],
  ["Cc1nc(C[C@H]2CN3CC[C@@H]2C3)no1 (relative stereo) [Example E15, hydrochloride salt]", 1.48]
]}

Name the recorded log10(IC50) for Cn1nnc(C[C@H]2CN3CC[C@@H]2C3)n1 (relative stereo) [Example E11, oxalate salt] .
0.90

What would you report for Cc1noc(C[C@H]2CN3CC[C@@H]2C3)n1 (relative stereo) [Example E6, oxalate salt] ?
1.01

====

- Target desc: muscarinic receptors
- Method: Radio ligand binding: displacement of the muscarinic agonist 3H-Oxotremorine-M (3H-OXO-M) from cerebral cortex membranes
- Design: species or system Hooded Lister rats
- Run parameters: displacement of muscarinic agonist 3H-OXO-M (2nM), rat cerebral cortex, 2mM magnesium chloride, 37° C., 30 min
Structures can show the parent of a compound that is named as a salt.
Quantity: pIC50
Give only the number. pIC50 is defined as minus log10 of concentration in molar units.

{"columns": ["Compound", "Target desc", "pIC50"],
 "data": [
  ["Nc1noc(C[C@@H]2CN3CC[C@@H]2C3)n1 (relative stereo) [Example E1]", "muscarinic receptors", 7.44],
  ["c1coc(CC2CN3CCC2CC3)n1 (racemic) [Example E3, oxalate salt]", "muscarinic receptors", 6.12],
  ["Nc1noc(CC23CCCN(CC2)C3)n1 (racemic) [Example E4]", "muscarinic receptors", 6.24],
  ["c1csc(CC2CN3CCC2CC3)n1 (racemic) [Example E17, oxalate salt]", "muscarinic receptors", 6.06],
  ["Cc1nc(C[C@H]2CN3CC[C@@H]2C3)no1 (relative stereo) [Example E15, hydrochloride salt]", "muscarinic receptors", 6.02]
]}

Name the recorded pIC50 for c1coc(CC23CCCN(CC2)C3)c1 (racemic) [Example E12, oxalate salt] .
6.18

What would you report for Nc1noc(C[C@@H]2C[C@@H]3CCN(C2)C3)n1 (relative stereo) [Example E9] ?
6.03

What would you report for Nc1noc(C[C@H]2CN3CC[C@@H]2C3)n1 (relative stereo) [Example E5] ?
7.49

What would you report for Cn1nnc(C[C@H]2CN3CC[C@@H]2C3)n1 (relative stereo) [Example E11, oxalate salt] ?
6.47

====

- Target desc: muscarinic receptors
- Method: Radio ligand binding: displacement of the muscarinic agonist 3H-Oxotremorine-M (3H-OXO-M) from cerebral cortex membranes
- Set-up: species or system Hooded Lister rats
- Run parameters: displacement of muscarinic agonist 3H-OXO-M (2nM), rat cerebral cortex, 2mM magnesium chloride, 37° C., 30 min
Structures can show the parent of a compound that is named as a salt.
// reported IC50 for each item listed
Provide only the numeric value, understood in nM.

{"columns": ["Molecule", "Unit tag", "IC50"],
 "data": [
  ["Cc1noc(C[C@H]2CN3CC[C@@H]2C3)n1 (relative stereo) [Example E6, oxalate salt]", "nM", 150],
  ["c1ncc(C[C@H]2CN3CC[C@@H]2C3)o1 (relative stereo) [Example E8, hydrochloride salt]", "nM", 625],
  ["c1coc(CC23CCN(CC2)C3)n1 [Example E14, oxalate salt]", "nM", 410],
  ["c1coc(C[C@@H]2CN3CC[C@@H]2C3)n1 (relative stereo) [Example E10, oxalate salt]", "nM", 38],
  ["Cc1noc(CC2CN3CCC2CC3)n1 (racemic) [Example E2, hydrochloride salt]", "nM", 1050]
]}

Name the recorded IC50 for c1coc(C[C@H]2CN3CC[C@@H]2C3)n1 (relative stereo) [Example E7, oxalate salt] .
42

What would you report for Cc1nc(C[C@@H]2CN3CC[C@@H]2C3)no1 (relative stereo) [Example E16, hydrochloride salt] ?
1000

What would you report for Nc1noc(CC23CCN(CC2)C3)n1 ?
118

====

- Target desc: muscarinic receptors
- Format: binding, Hooded Lister rats
- Run parameters: displacement of muscarinic antagonist 3H-QNB (0.27nM), rat cerebral cortex, 37° C., 30 min
Structures can show the parent of a compound that is named as a salt.
// reported pIC50 for each item listed
Give only the number. pIC50 is defined as minus log10 of concentration in molar units.

For the record Nc1noc(C[C@@H]2CN3CC[C@@H]2C3)n1 (relative stereo) [Example E1] , what value of pIC50 is listed for muscarinic receptors?
5.12

What would you report for c1coc(C[C@@H]2CN3CC[C@@H]2C3)n1 (relative stereo) [Example E10, oxalate salt] ?
5.25

What would you report for Nc1noc(C[C@@H]2C[C@@H]3CCN(C2)C3)n1 (relative stereo) ?
5.34

What would you report for c1coc(CC23CCCN(CC2)C3)c1 (racemic) [Example E12, oxalate salt] ?
5.40

What would you report for c1coc(CC2CN3CCC2CC3)n1 (racemic) [Example E3, oxalate salt] ?
5.15

What would you report for c1coc(C[C@H]2CN3CC[C@@H]2C3)n1 (relative stereo) [Example E7, oxalate salt] ?
5.10

What would you report for c1ncc(C[C@H]2CN3CC[C@@H]2C3)o1 (relative stereo) [Example E8, hydrochloride salt] ?
4.42
